Documented RBNS R-value across a set of sequences
system: PfIESI-1 RRM domain (Plasmodium falciparum ortholog aa 875-1232, GST fusion); assay: RBNS R-value (6-mer enrichment in protein-bound RNA vs input library) (ratio); higher = stronger binding preference; details: protein concentration: 500 nM
In all, about 4,100 sequences were measured (“RBNS R-value (6-mer enrichment in protein-bound RNA vs input library)”: median about 0.99, highest 2% from about 1.4 on). Only a selection was taken, and the highest values are over-represented in it overall.
property.measured: RBNS R-value

INSERT INTO assay_data (residues, measured_result) VALUES
  ('AAGGUA', 1.01),
  ('GAGGCC', 1.07),
  ('AAAGAU', 1.19),
  ('UAUAGC', 0.87),
  ('CUUAAG', 0.849),
  ('CAGUCU', 0.914),
  ('UUCGCC', 0.992),
  ('UUCGAG', 1.12),
  ('AUCCUA', 0.898),
  ('CUCGAG', 1.28),
  ('GAUCGC', 0.958),
  ('GCCCGC', 1.09);

====

test system: PfIESI-1 RRM domain (Plasmodium falciparum ortholog aa 875-1232, GST fusion); experiment: RBNS R-value (6-mer enrichment in protein-bound RNA vs input library) (ratio); higher = stronger binding preference; details: protein concentration: 1000 nM
The full ranking holds about 4,100 sequences; the median of “RBNS R-value (6-mer enrichment in protein-bound RNA vs input library)” is about 0.99, and the highest 2% start at about 1.4. The list comes from a sample in which the highest values are over-represented; it also holds close analogues and randomly drawn sequences.
Documented RBNS R-value across a set of sequences
property.measured: RBNS R-value

INSERT INTO measurements (residues, measured_result) VALUES
  ('AAAUGA', 1.38),
  ('GAUCGC', 0.975),
  ('CAUAAU', 0.73),
  ('CAAUGC', 0.955),
  ('GCUGAC', 1.07),
  ('ACUGAC', 1.04),
  ('CAAUGG', 1.06),
  ('GAAUGC', 1.08),
  ('CUUAGC', 0.885),
  ('GAUACG', 1.09),
  ('GCUGAG', 1.1),
  ('UCUGAG', 1.14),
  ('CUUAAG', 0.846),
  ('AAUCAA', 0.899),
  ('CGGGGA', 1.16),
  ('UUAUCG', 0.799),
  ('CAGAAC', 1.13),
  ('UCUGAA', 1.03),
  ('ACUGAU', 1.65),
  ('UGUCAG', 0.976),
  ('ACUGAG', 1.11),
  ('GCAGGU', 1.07),
  ('CAAUGA', 1.24);

====

tested on: PfIESI-1 RRM domain (Plasmodium falciparum ortholog aa 875-1232, GST fusion); assay: RBNS R-value (6-mer enrichment in protein-bound RNA vs input library) (ratio); higher = stronger binding preference; the methods of the paper give 50 / 100 / 500 nM protein instead; conditions: protein concentration: 250 nM
The full ranking holds about 4,100 sequences; the median of “RBNS R-value (6-mer enrichment in protein-bound RNA vs input library)” is about 0.99, and the highest 2% start at about 1.4. Many of the other results were omitted from the sample, so the highest values are more common in it than they were.
property.measured: RBNS R-value

INSERT INTO results (residues, assayed_system, measured_result) VALUES
  ('ACCCGC', 'PfIESI-1 RRM domain (Plasmodium falciparum ortholog aa 875-1232, GST fusion)', 1.29),
  ('GAAAAU', 'PfIESI-1 RRM domain (Plasmodium falciparum ortholog aa 875-1232, GST fusion)', 1.12),
  ('AAAAAU', 'PfIESI-1 RRM domain (Plasmodium falciparum ortholog aa 875-1232, GST fusion)', 1.07),
  ('AUGAUA', 'PfIESI-1 RRM domain (Plasmodium falciparum ortholog aa 875-1232, GST fusion)', 1.84),
  ('GCCCGA', 'PfIESI-1 RRM domain (Plasmodium falciparum ortholog aa 875-1232, GST fusion)', 1.52),
  ('CUGAUG', 'PfIESI-1 RRM domain (Plasmodium falciparum ortholog aa 875-1232, GST fusion)', 2.47),
  ('UCCCGA', 'PfIESI-1 RRM domain (Plasmodium falciparum ortholog aa 875-1232, GST fusion)', 1.2),
  ('AGAAAA', 'PfIESI-1 RRM domain (Plasmodium falciparum ortholog aa 875-1232, GST fusion)', 1.27),
  ('CGAGGC', 'PfIESI-1 RRM domain (Plasmodium falciparum ortholog aa 875-1232, GST fusion)', 1.15),
  ('CGAAAA', 'PfIESI-1 RRM domain (Plasmodium falciparum ortholog aa 875-1232, GST fusion)', 1.17),
  ('CUGAUC', 'PfIESI-1 RRM domain (Plasmodium falciparum ortholog aa 875-1232, GST fusion)', 1.29),
  ('ACCCGG', 'PfIESI-1 RRM domain (Plasmodium falciparum ortholog aa 875-1232, GST fusion)', 1.44);

Cited source: the supplement of paper PMC13392028
